molecular target: kinases listed Table 2; assay: Kinase dose response study (kinases listed Table 2); type: biochemical; details: range over all kinases of Table 2; read-out: IC50 percentage inhibition of activity for all the kinases
pIC50: −log10 of the molar value.
attributeMeasured: pIC50

Ask: Form field: reported pIC50 of Dend 10-10(4) whose RSKAKNPLYR peptides are entirely D-amino acids and pegylated with two ethylene glycol units [Dend 10-10(4)DP]
Result: 5.70 to 6.60

###

system: HL60 leukemic cells; assay: MTT proliferation, HL60 cells; assay type: cell-based; conditions: MTT assay, data not shown; read-out: IC50 inhibition of proliferation of HL60 leukemic cells
attributeMeasured: IC50 (nM)
Provide only the numeric value, understood in nM.

Ask: # get_value(readout= IC50, system= HL60 leukemic cells) for Dend 10-10(4) whose RSKAKNPLYR peptides are entirely D-amino acids and pegylated with two ethylene glycol units [Dend 10-10(4)DP]
Result: 2000
